Assay: in vitro
Conditions: human, hela cells, % viability
endpoint_name: viability at 28.5 h, 10 µM

COc1cccc2c(=O)n(CCCn3nc(C)nc3C)cnc12 [CBK307295]	97%

Given item Cn1nnc2cc(C(=O)NCCN3CCCCC3CO)ccc21 (centres unmarked) [CBK307268] , the value recorded as its viability at 28.5 h, 10 µM is 84.3%

Given item CC1CCN(Cc2c(C3CCNCC3)[nH]c3ncccc23)CC1 [CBK285022] , the value recorded as its viability at 28.5 h, 10 µM is 91.7%

Given item COc1ccccc1N1CCN(C(=O)NCCc2c[nH]cn2)CC1 [CBK155369] , the value recorded as its viability at 28.5 h, 10 µM is 98.8%

Given item Cc1nccn1C(=O)NC1CCCCC1 [CBK019187] , the value recorded as its viability at 28.5 h, 10 µM is 81.8%

###

Assay: in vitro
Details: human, hela cells, % viability
viability at 28.5 h, 10 µM listing for selected compounds.
Please answer in the form of a number followed by its unit of measurement.

Reference set, count: 9
COc1cc2c(cc1OC)CN(C(=O)CSc1nc(-c3cccnc3)ccc1C#N)CC2 [CBK267464]	69.8%
O=[N+]([O-])c1ccc(C2CNC(c3ccccc3O)O2)cc1 (stereo not shown) [CBK262298]	94%
CC(C)c1cccc2c1OC(C(C)C)C(=O)N2 (stereo not shown) [CBK009286]	85.2%
O=c1c(N2CCNCC2)nccn1CCOc1cccc(Cl)c1Cl [CBK013463]	92.2%
c1nnc(SCc2ccc(CSc3nnc[nH]3)cc2)[nH]1 [CBK263282]	93.5%
Cc1cc(-c2cc(=O)n(Cc3ccccc3F)nc2C2CC2)on1 [CBK284366]	87.2%
COC(=O)c1ccccc1NC(=O)CC1Sc2ccccc2NC1=O (stereo not shown) [CBK269400]	90.2%
Cc1onc(-c2ccccc2Cl)c1C(=O)Nc1ccc(CC(=O)O)cc1 [CBK269623]	89.2%
FC(F)(F)Oc1cccc(-c2cncc(NCc3ccncc3)n2)c1 [CBK065926]	104%

Now for a further compound.
Given item COc1ccc(-n2ncc(-c3ccc(Br)cc3F)n2)cc1OC [CBK112915] , the value recorded as its viability at 28.5 h, 10 µM is 96.9%

###

Test system: C. trachomatis L2/434/Bu expressing GFP (CTL2-GFP)
Construct: L2/434/Bu GFP intracellular growth in HeLa cells
Assay: microbe, parasite or virus in culture
Set-up: C. trachomatis total inclusion area by high-content imaging, normalised to DMSO
Settings: Chlamydia trachomatis, HeLa, 28.5 h; total inclusion area; read-out: % of control remaining
activity at 1 µM listing for selected compounds.

Given item O=C1CC[C@@H](NCc2cccs2)[C@H](c2cc(F)cc(F)c2)N1 , the value recorded as its activity at 1 µM is 98.3%

Given item CC(Oc1cccc2ccccc12)C(=S)N(C)c1ccccc1 (stereo not drawn) , the value recorded as its activity at 1 µM is 105%

Given item CCCCC(=O)/N=C(\N)Nc1nc2ccccc2o1 , the value recorded as its activity at 1 µM is 100%

Given item CCCN(CCC)CCc1cccc2c1CCN2C(=O)c1cc2ccccc2s1 [CBK017871C] , the value recorded as its activity at 1 µM is 58%

Given item NCc1ccc2cccc(O)c2n1 [CBK001376T] , the value recorded as its activity at 1 µM is 66.3%

###

Assay: in vitro
Conditions: human, hela cells, % viability
endpoint_name: viability at 28.5 h, 10 µM (%)
Write down the numeric answer in % and omit the unit.

O=c1[nH]c(=O)c2cc(S(=O)(=O)NCC3(N4CCOCC4)CCCCC3)ccc2[nH]1	105
CCC1CCCCN1C(=O)c1cccc(C(=O)OC)c1 (stereo not drawn)	109
COc1ccc(C2C(C(C)=O)=C(O)C(=O)N2CCCC(=O)O)cc1 (stereo not drawn)	100
Cc1cc(C(=O)N2CCCCCC2c2nn(C)cc2Cl)on1 (stereo not drawn)	107
CCN(CC)C(=O)c1ccccc1NS(=O)(=O)c1cc(Br)c(Cl)s1	91.3

Given item O=C(c1cnc2[nH][nH]c(=O)c2c1)c1ccccc1O , the value recorded as its viability at 28.5 h, 10 µM is 90.5

Given item CCc1nccn1CCC(=O)NC1CCCN(Cc2ccccc2F)C1 (stereo not drawn) , the value recorded as its viability at 28.5 h, 10 µM is 78.9

Given item O=c1c2ccccc2c(-c2ccc(Cl)cc2)nn1-c1cc(N2CCNCC2)ccc1[N+](=O)[O-] , the value recorded as its viability at 28.5 h, 10 µM is 98.7

Given item Cc1cccc(C(=O)NC(CC(C)C)c2nnc3n2CCNCC3)n1 (stereo not drawn) , the value recorded as its viability at 28.5 h, 10 µM is 108

###

viability at 28.5 h, 10 µM listing for selected compounds.
Test: in vitro
Conditions: human, hela cells, % viability
Write down the numeric answer in % and omit the unit.

Reference set, count: 4
CCN1CCCC1CNC(=O)c1cc([N+](=O)[O-])c(N(C)C)cc1OC (stereo not drawn) [CBK262595]	95.8
COc1ccccc1Cn1nc2nnc(-c3ccc(F)cc3)c(-c3ccc(F)cc3)n2c1=O [CBK286184]	97.7
Cc1oc(NC(=O)CN2CCN(c3ccccn3)CC2)c(C#N)c1C [CBK236456]	96.9
CCN(c1ccc(NC(=O)Cn2nc(C(=O)O)c3ccccc3c2=O)cc1)C(C)C [CBK297734]	94.5

Given item S=C(Nc1cccc(Cl)c1Cl)Nc1nn(Cc2ccc(Cl)c(Cl)c2)cc1Cl [CBK267109] , the value recorded as its viability at 28.5 h, 10 µM is 109

Given item Cc1n[nH]c(NC(=O)/C=C/C(=O)O)c1-c1ccc(F)cc1 [CBK287068] , the value recorded as its viability at 28.5 h, 10 µM is 96.7

Given item CCN(CC)CCn1c(=N)n(Cc2ccc(C(C)(C)C)cc2)c2ccccc21 [CBK268803B] , the value recorded as its viability at 28.5 h, 10 µM is 82.9

Given item Cc1cc(N2CCN(C(=O)c3c[nH]c(=O)[nH]3)CC2)nc(C(C)C)n1 [CBK296681] , the value recorded as its viability at 28.5 h, 10 µM is 111

Given item Cc1cc(CN2CCC(C(=O)c3ccc(F)cc3)CC2)no1 [CBK149121] , the value recorded as its viability at 28.5 h, 10 µM is 89.2

###

Assay: in vitro
Conditions: human, hela cells, % viability
viability at 28.5 h, 10 µM listing for selected compounds.
Write down the numeric answer in % and omit the unit.

Reference set, count: 4
O=C(O)CCC(=O)N1N=C2C(=Cc3ccco3)CCCC2C1c1ccco1 (centres unmarked)	97.9
Nc1nonc1C(=O)NCCNc1ccc([N+](=O)[O-])cn1	97.7
CC(Oc1cccc2ccccc12)C(=O)NN (centres unmarked)	112
Cn1cccc1C(=O)NCc1ccccc1OC1CCNC1 (centres unmarked) [CBK029463T]	88.7

Now for a further compound.
Given item CCOCCn1c(CN2CCCCC2)nc2c1c(=O)n(C)c(=O)n2C , the value recorded as its viability at 28.5 h, 10 µM is 85.8

###

viability at 28.5 h, 10 µM listing for selected molecules.
Test: in vitro
Conditions: human, hela cells, % viability
Write down the numeric answer in % and omit the unit.

CCCc1nn(CC(=O)N2CCCC2)c(=O)c2cc3ccsc3n12	85.5
CC(Cc1cccs1)NC(=O)C(C)Cn1cccn1 (stereo not shown)	85.4
NS(=O)(=O)c1ccc(NC(=S)Nc2nn(Cc3ccc(Cl)c(Cl)c3)cc2Br)cc1	94.4
COCc1cc(C)n(CC(=O)Nc2ccc(N3CCOCC3)cc2)c(=O)c1C#N	95.2

Given item CCc1c(C)nc2ccccc2c1SCC(=O)O , the value recorded as its viability at 28.5 h, 10 µM is 83.9

Given item CN1C2C=C(N(CCc3ccccc3)C(=O)c3ccc(Cl)cc3)CC1CC2 (stereo not shown) [CBK262604C] , the value recorded as its viability at 28.5 h, 10 µM is 94.7

Given item O=C(O)c1[nH]c2ccccc2c1C(c1c(F)cccc1Cl)c1c(C(=O)O)[nH]c2ccccc12 , the value recorded as its viability at 28.5 h, 10 µM is 87.4

Given item CS(=O)(=O)N[C@H]1C[C@H]2C(=O)Nc3ccc(-c4cccs4)cc3C(=O)N2C1 , the value recorded as its viability at 28.5 h, 10 µM is 95.7

Given item CSCCC(=O)Nc1cc(C)nc2ccccc12 , the value recorded as its viability at 28.5 h, 10 µM is 108

Given item COC(=O)c1cn([C@H]2CO[C@H]3[C@@H]2OC[C@H]3O)nn1 , the value recorded as its viability at 28.5 h, 10 µM is 87.5

Given item Cc1ccc(S(=O)(=O)c2ccc(C)c(S(=O)(=O)N3CCCC3)c2)cc1S(=O)(=O)N1CCCC1 , the value recorded as its viability at 28.5 h, 10 µM is 78.9
